Test system: human PKK mRNA
protocol.notes: Dose-dependent antisense inhibition of human PKK in HepaRG cells, 0.12-10.00 uM (Example 4)
Type: cell-based
recorded.conditions: Table 33, PKK mRNA, electroporation, ~16 h
pIC50: −log10 of the molar value. Strand notation (5' to 3'): a small letter for the sugar, then the base; units joined by * are phosphorothioate-linked, units joined directly phosphodiester-linked; [ ] holds rarer units or linkages, { } end groups; capitals alone tell only the bases. e = 2'-O-(2-methoxyethyl) (MOE); [5mC] = 5-methylcytosine; d = 2'-deoxy (DNA)
The substances listed here are annotated with their pIC50.
measured.attribute: pIC50

[[record]]
substance = "531198 (eG*eG*eG*eA*eT*dT*dT*dT*dG*d[5mC]*dT*dG*dA*dA*dG*e[5mC]*eT*eG*eG*eT; antisense) [compound 531198]"
value_reported = 6.10

[[record]]
substance = "531055 (antisense e[5mC]*e[5mC]*e[5mC]*eT*eT*d[5mC]*dT*dT*dT*dA*dT*dA*dG*d[5mC]*d[5mC]*eA*eG*e[5mC]*eA*e[5mC]) [compound 531055]"
value_reported = 6.05

[[record]]
substance = "531232 (e[5mC]*eT*eG*eT*eA*d[5mC]*dT*dA*dG*dT*dT*dT*d[5mC]*d[5mC]*dT*eA*eT*eA*eA*e[5mC]; antisense) [compound 531232]"
value_reported = 5.77

[[record]]
substance = "531172 (antisense eT*eT*e[5mC]*eA*eA*dG*d[5mC]*d[5mC]*dT*dG*dG*dG*d[5mC]*dA*dG*e[5mC]*eA*e[5mC]*eA*eG) [compound 531172]"
value_reported = 5.68

[[record]]
substance = "531069 (e[5mC]*e[5mC]*eA*eG*eT*d[5mC]*d[5mC]*dA*dT*dG*dT*dA*d[5mC]*dT*d[5mC]*eA*eG*e[5mC]*eG*eA; antisense) [compound 531069]"
value_reported = 6.05

[[record]]
substance = "531121 (antisense eT*eT*eG*eG*eT*d[5mC]*dT*dA*d[5mC]*dA*dG*dA*dT*dT*d[5mC]*eA*eA*eT*eG*e[5mC]) [compound 531121]"
value_reported = 5.82

